Parameter RP-LC retention time: see the listing below.
assay: gradient 5% acetonitrile 3 min, to 50% in 2 min, to 85% in 15 min, held 3 min, 100 µL/min; conditions: column: Zorbax Extend-C18 2.1 x 50 mm; eluents: water / acetonitrile, 0.1% formic acid
endpoint name: RP-LC retention time

compound: CCc1cccc(NC(=O)Cn2c(-c3cnccn3)nc(C)c(C)c2=O)c1
reading: 809 s

compound: COc1ccccc1NC(=O)C1CC(=O)N(c2ccc3c(c2)CCN3C(=O)C2CC2)C1 (stereo not drawn)
reading: 778 s

compound: Cc1ccc(C(=O)Nc2ccc(-n3c(C)nc4ccccc4c3=O)cc2C)s1
reading: 821 s

----------
experiment: gradient 5% acetonitrile 3 min, to 50% in 2 min, to 85% in 15 min, held 3 min, 100 µL/min; conditions: column: Zorbax Extend-C18 2.1 x 50 mm; eluents: water / acetonitrile, 0.1% formic acid
endpoint name: RP-LC retention time (s)

compound: COc1ccc(-c2ncc3c(n2)CCN(C(=O)c2c(F)cccc2Cl)C3)cc1
units text: s
reading: 966
//
compound: Cc1ccc(-n2c(N3CCCC(C(=O)NCCc4cccs4)C3)nc3ccsc3c2=O)cc1 (centres undefined)
units text: s
reading: 913
//
compound: O=C(Nc1ccc(N2CCN(C3CCCCC3)C2=O)nc1)c1ccccc1
units text: s
reading: 630
//
compound: CCn1nc(CNC(=O)Cc2cccc(F)c2)c2ccccc21
units text: s
reading: 764
//
compound: O=C(NC1CCCCCC1)c1nc(-c2ccnc(N3CCCC3)c2)no1
units text: s
reading: 709
//
compound: Cc1cc(C)c(S(=O)(=O)N2CCCC2c2nc(-c3ccccc3C)no2)c(C)c1 (centres undefined)
units text: s
reading: 1330
//
compound: CC(C)Oc1ccc(-c2noc(Cn3c(=O)n(Cc4ccccc4)c(=O)c4sccc43)n2)cc1
units text: s
reading: 1170
//
compound: COc1ccccc1NC(=O)N1CCCC1c1nc(-c2cccc(Cl)c2)no1 (centres undefined)
units text: s
reading: 941
//
compound: CCOC(=O)C1CCCN(c2nc(-c3ccc(Cl)cc3)nc3ccccc23)C1 (centres undefined)
units text: s
reading: 936
//
compound: COC(=O)C1=C(C)N(C(C)C)C(=O)C1(NC(=O)c1ccccc1OC)C(F)(F)F (centres undefined)
units text: s
reading: 1010
//
compound: Cc1cc(C)cc(S(=O)(=O)N2CCC(C(=O)NCc3csc(-c4cccs4)n3)CC2)c1
units text: s
reading: 967
//
compound: CCN1c2cc(Cl)ccc2C(=O)NC12CCN(C(=O)NCc1ccc(F)cc1)CC2
units text: s
reading: 840
//
compound: Cn1cc(CCNC(=O)c2cncc(Br)c2)c2cccnc21
units text: s
reading: 638
//
compound: CSc1ccc(CNC(=O)Cn2cnc3nc4c(cc3c2=O)CCCC4)cc1
units text: s
reading: 733
//
compound: CCOc1ccccc1NC(=O)Cn1cnc2nc(N3CCC(C(=O)NC4CC4)CC3)sc2c1=O
units text: s
reading: 696
//
compound: O=c1c(=O)n(-c2ccc(Cl)cc2)ccn1Cc1nc(-c2ccccc2)no1
units text: s
reading: 860
//
compound: CCC(CN1CCOCC1)NC(=O)C1CCN(c2ccc(-c3cccs3)nn2)CC1 (centres undefined)
units text: s
reading: 571
//
compound: COc1ccc(NS(=O)(=O)c2ccc3c(c2)C(=O)N(C)c2ncccc2O3)cc1F
units text: s
reading: 891
//
compound: O=C(NCc1cccc(Cl)c1)C1CCCN(c2nc3cccnc3n(Cc3ccccc3)c2=O)C1 (centres undefined)
units text: s
reading: 1190
//
compound: Cc1cc(N2CCC(NC(=O)Nc3ccccc3)C2=O)ccc1F (centres undefined)
units text: s
reading: 824
//
compound: OCCNc1nc(NCCc2cccs2)nc2c1cnn2-c1ccc(F)cc1
units text: s
reading: 698
//
compound: O=C(NC1CCCCC1)C1CCCN(c2ncnc3c2nc2n3CCCCC2)C1 (centres undefined)
units text: s
reading: 778
//
compound: Cc1ccc(Cc2nnc(NC(=O)c3cc(C)n(C(C)C)n3)o2)cc1
units text: s
reading: 802
//
compound: Cc1nc2nc(-c3ccc(Cl)cc3)nn2c(C)c1CC(=O)N1CCCC1
units text: s
reading: 780
